B1: CLPTM1 (parent)
chain: MNLHVYISEHEHFTDFNATSALFW

variants of: B1; assay: protein stability index of a GFP-peptide fusion (GPS, HEK-293T) (PSI 1-6); higher = more stable; conditions: c terminus: a fixed tail appended;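 note: lentivirally expressed fusions sorted by FACS into six bins by GFP to DsRed ratio, PSI derived from sequencing read proportions per bin multiplied by bin number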
measured_parameter: protein stability index

- mutant: "E11M"
  measured_parameter: "protein stability index"
  quantitative_readout: 3.46
- mutant: "L3T"
  measured_parameter: "protein stability index"
  quantitative_readout: 1.47
- mutant: "E11D"
  measured_parameter: "protein stability index"
  quantitative_readout: 2.39
- mutant: "F16H"
  measured_parameter: "protein stability index"
  quantitative_readout: 3.52
- mutant: "N2F"
  measured_parameter: "protein stability index"
  quantitative_readout: 3.32
- mutant: "F13G"
  measured_parameter: "protein stability index"
  quantitative_readout: 2.42
- mutant: "N17C"
  measured_parameter: "protein stability index"
  quantitative_readout: 2.72
- mutant: "T19C"
  measured_parameter: "protein stability index"
  quantitative_readout: 2.92
- mutant: "D15E"
  measured_parameter: "protein stability index"
  quantitative_readout: 2.73
- mutant: "Y6N"
  measured_parameter: "protein stability index"
  quantitative_readout: 2.22
